tested system: T1, human NK2 Receptor (human, UniProt P21452 1-398)
T1 construct: whole, on cells; calcium assays used intact CHO-hNK2 cells; also called hNK2R; hNK2
T1 sequence (looked up): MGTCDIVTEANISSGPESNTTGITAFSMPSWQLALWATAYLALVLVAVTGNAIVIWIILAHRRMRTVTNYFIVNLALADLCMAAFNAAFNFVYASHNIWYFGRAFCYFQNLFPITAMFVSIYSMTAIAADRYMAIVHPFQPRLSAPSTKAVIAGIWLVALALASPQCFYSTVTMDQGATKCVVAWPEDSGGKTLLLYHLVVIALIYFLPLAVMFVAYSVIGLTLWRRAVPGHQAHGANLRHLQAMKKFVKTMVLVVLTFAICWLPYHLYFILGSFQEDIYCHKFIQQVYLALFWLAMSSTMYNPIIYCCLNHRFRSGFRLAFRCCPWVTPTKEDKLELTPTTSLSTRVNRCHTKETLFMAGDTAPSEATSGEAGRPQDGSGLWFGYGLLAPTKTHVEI
method notes: radioligand competition, displacement of 0.1 nM [125I]-NKA from CHO-hNK2 membranes
Where no end group is shown, it is not given here.
Catalogue of Ki readings, one per entry.
# number only, unit nM dropped from output

Solved cases (4 shown):
binder | Ki [nM]
DRFVGLM-NH2 (synthetic heptapeptide analog of neurokinin A, Fmoc solid-phase synthesis; also called Compound H; Cmpd H) [Heptapeptide analog H, Asp-Arg-Phe-Val-Gly-Leu-Met-NH2] | 0.31
DKFVALM (HELM PEPTIDE1{D.K.F.V.[bAla].L.M.[am]}$$$$V2.0; N-terminus assumed; SMILES CSCC[C@H](NC(=O)[C@H](CC(C)C)NC(=O)CCNC(=O)[C@@H](NC(=O)[C@H](Cc1ccccc1)NC(=O)[C@H](CCCCN)NC(=O)[C@@H](N)CC(=O)O)C(C)C)C(N)=O, synthetic heptapeptide analog of neurokinin A, Fmoc solid-phase synthesis; also called Compound E; Cmpd E) [Heptapeptide analog E, Asp-Lys-Phe-Val-(β-Ala)-Leu-Met-NH2] | 2.11
DKFVALX (HELM PEPTIDE1{D.K.F.V.[bAla].L.[Nle].[am]}$$$$V2.0; N-terminus assumed; SMILES CCCC[C@H](NC(=O)[C@H](CC(C)C)NC(=O)CCNC(=O)[C@@H](NC(=O)[C@H](Cc1ccccc1)NC(=O)[C@H](CCCCN)NC(=O)[C@@H](N)CC(=O)O)C(C)C)C(N)=O, synthetic heptapeptide analog of neurokinin A, Fmoc solid-phase synthesis; also called Compound G; Cmpd G) [Heptapeptide analog G, Asp-Lys-Phe-Val-(β-Ala)-Leu-Nle-NH2] | 16.4
DRFVALX (HELM PEPTIDE1{D.R.F.V.[bAla].L.[Nle].[am]}$$$$V2.0; N-terminus assumed; SMILES CCCC[C@H](NC(=O)[C@H](CC(C)C)NC(=O)CCNC(=O)[C@@H](NC(=O)[C@H](Cc1ccccc1)NC(=O)[C@H](CCCNC(=N)N)NC(=O)[C@@H](N)CC(=O)O)C(C)C)C(N)=O, synthetic heptapeptide analog of neurokinin A, Fmoc solid-phase synthesis; also called Compound K; Cmpd K) [Heptapeptide analog K, Asp-Arg-Phe-Val-(β-Ala)-Leu-Nle-NH2] | 6.85

Next:
// recorded Ki for DRFVGLX (HELM PEPTIDE1{D.R.F.V.G.L.[Nle].[am]}$$$$V2.0; N-terminus assumed; SMILES CCCC[C@H](NC(=O)[C@H](CC(C)C)NC(=O)CNC(=O)[C@@H](NC(=O)[C@H](Cc1ccccc1)NC(=O)[C@H](CCCNC(=N)N)NC(=O)[C@@H](N)CC(=O)O)C(C)C)C(N)=O, synthetic heptapeptide analog of neurokinin A, Fmoc solid-phase synthesis; also called Compound J; Cmpd J) [Heptapeptide analog J, Asp-Arg-Phe-Val-Gly-Leu-Nle-NH2] : 1.74
